- Test system: LU-99A (Non-Small Cell Lung Carcinoma)
- assay: Bliss excess, mean over the matrix (fraction); higher = more synergy
metric.name: Bliss excess
Answers are plain numbers.

molecule	Bliss excess
CC1(C)CCC(CN2CCN(c3ccc(C(=O)NS(=O)(=O)c4ccc(NCC5CCOCC5)c([N+](=O)[O-])c4)c(Oc4cnc5[nH]ccc5c4)c3)CC2)=C(c2ccc(Cl)cc2)C1 [Venetoclax] + CCN(CCO)CCCOc1ccc2c(Nc3cc(CC(=O)Nc4cccc(F)c4)[nH]n3)ncnc2c1 [AZD2811] (first compound max 1 µM, 7x7, partner max 1 µM)	-0.0012

Count: 2. Required value per item: Bliss excess.
1. COc1nnc2ccc(N3CCC(c4ccc(OCCN5CCN(C)C(=O)[C@H]5C)cc4)CC3)nn12 [AZD5153] + C[C@@H]1COCCN1C2=NC(=NC(=C2)C3(CC3)[S@](=N)(=O)C)C4=C5C=CNC5=NC=C4 [AZD6738] (first compound max 1 µM, 7x7, partner max 10 µM)
2. Cc1c2c(nn1C)CSCc1cc(n(C)n1)CSc1cc(c3ccccc3c1)OCCCc1c(C(=O)O)n(C)c3c-2c(Cl)ccc13 [AZD5991] + C1CN(CCC1(C(=O)N[C@@H](CCO)C2=CC=C(C=C2)Cl)N)C3=NC=NC4=C3C=CN4 [Capivasertib] (first compound max 1 µM, 7x7, partner max 3 µM)

1. -0.0213
2. -0.0247

###

- Tested on: RH-1 (Ewing's Sarcoma)
- assay: combination Emax (second highest fraction inhibited in the dose matrix, 72 h); higher = more inhibition; extreme values may be limits of the assay
metric.name: combination Emax
Give bare numbers.

compound	metric.name	measured.number
CCc1c2c(nc3ccc(O)cc13)-c1cc3c(c(=O)n1C2)COC(=O)[C@]3(O)CC [SN-38] + O=C(c1cc(Cc2n[nH]c(=O)c3ccccc23)ccc1F)N1CCN(C(=O)C2CC2)CC1 [Olaparib] (first compound max 0.3 µM, 7x7, partner max 10 µM)	combination Emax	1

Consider the record given below.
Lab book: combination Emax of CN(C)CCCOc1ccc(-c2ccc3ncc4c(c3c2)n(C2CCOCC2)c(=O)n4C)cn1 [AZD0156] + C[C@@H]1COCCN1C2=NC(=NC(=C2)C3(CC3)[S@](=N)(=O)C)C4=C5C=CNC5=NC=C4 [AZD6738] (first compound max 1 µM, 7x7, partner max 10 µM) noted as 0.938

###

Kindly supply the reported combination Emax values for the records listed here.
- Test system: NCI-H1793 (Lung Adenocarcinoma)
- assay: combination Emax (second highest fraction inhibited in the dose matrix, 72 h); higher = more inhibition; extreme values may be limits of the assay

compound	combination Emax
COc1nnc2ccc(N3CCC(c4ccc(OCCN5CCN(C)C(=O)[C@H]5C)cc4)CC3)nn12 [AZD5153] + C=CCn1c(=O)c2cnc(Nc3ccc(N4CCN(C)CC4)cc3)nc2n1-c1cccc(C(C)(C)O)n1 [AZD1775] (first compound max 1 µM, partner max 1 µM)	0.358

Consider the record given below.
Lab book: combination Emax of CCN(CCO)CCCOc1ccc2c(Nc3cc(CC(=O)Nc4cccc(F)c4)[nH]n3)ncnc2c1 [AZD2811] + O=C(c1cc(Cc2n[nH]c(=O)c3ccccc23)ccc1F)N1CCN(C(=O)C2CC2)CC1 [Olaparib] (first compound max 1 µM, 7x7, partner max 10 µM) noted as 0.0897

###

Kindly supply the reported combination Emax values for the records listed here.
- Tested on: TE-5 (Esophageal Squamous Cell Carcinoma)
- assay: combination Emax (second highest fraction inhibited in the dose matrix, 72 h); higher = more inhibition; extreme values may be limits of the assay
One number for each entry.

Some solved cases for reference:
compound	experimental.target	metric.name	measured.number
CN(C)CCCOc1ccc(-c2ccc3ncc4c(c3c2)n(C2CCOCC2)c(=O)n4C)cn1 [AZD0156] + C[C@@H]1COCCN1C2=NC(=NC(=C2)C3(CC3)[S@](=N)(=O)C)C4=C5C=CNC5=NC=C4 [AZD6738] (first compound max 1 µM, 7x7, partner max 10 µM)	TE-5 (Esophageal Squamous Cell Carcinoma)	combination Emax	0.481
N#Cc1cnc(Nc2cc(NC[C@H]3CNCCO3)c(C(F)(F)F)cn2)cn1 [SRA737] + Nc1ccn([C@@H]2O[C@H](CO)[C@@H](O)C2(F)F)c(=O)n1 [Gemcitabine] (first compound max 10 µM, 7x7, partner max 0.3 µM)	TE-5 (Esophageal Squamous Cell Carcinoma)	combination Emax	0.633
Cc1c2c(nn1C)CSCc1cc(n(C)n1)CSc1cc(c3ccccc3c1)OCCCc1c(C(=O)O)n(C)c3c-2c(Cl)ccc13 [AZD5991] + Nc1ccn([C@@H]2O[C@H](CO)[C@@H](O)C2(F)F)c(=O)n1 [Gemcitabine] (first compound max 1 µM, 7x7, partner max 0.3 µM)	TE-5 (Esophageal Squamous Cell Carcinoma)	combination Emax	0.75

Consider the record given below.
Lab book: combination Emax of N#Cc1cnc(Nc2cc(NC[C@H]3CNCCO3)c(C(F)(F)F)cn2)cn1 [SRA737] + O=c1[nH]cc(F)c(=O)[nH]1 [5-Fluorouracil] (first compound max 10 µM, 7x7, partner max 20 µM) noted as 0.24

###

Kindly supply the reported combination Emax values for the records listed here.
- Test system: EM-2 (Chronic Myelogenous Leukemia)
- assay: combination Emax (second highest fraction inhibited in the dose matrix, 72 h); higher = more inhibition; extreme values may be limits of the assay
Give bare numbers.

Some solved cases for reference:
compound	measured.number
Cn1cnc2c(F)c(Nc3ccc(Br)cc3Cl)c(C(=O)NOCCO)cc21 [Selumetinib] + C=CCn1c(=O)c2cnc(Nc3ccc(N4CCN(C)CC4)cc3)nc2n1-c1cccc(C(C)(C)O)n1 [AZD1775] (first compound max 10 µM, partner max 1 µM)	0.92
C[C@@H](c1ccc2nccn2c1)n1nnc2ncc(-c3cnn(C)c3)nc21 [Savolitinib] + CN(CC[C@H](CSC1=CC=CC=C1)NC2=C(C=C(C=C2)S(=O)(=O)NC(=O)C3=CC=C(C=C3)N4CCC(CC4)[C@H](C5=CC=CC=C5C6=CC=C(C=C6)Cl)O)S(=O)(=O)C(F)(F)F)CCO [AZD4320] (first compound max 1 µM, 7x7, partner max 1 µM)	0.971

Consider the record given below.
Lab book: combination Emax of Cc1c2c(nn1C)CSCc1cc(n(C)n1)CSc1cc(c3ccccc3c1)OCCCc1c(C(=O)O)n(C)c3c-2c(Cl)ccc13 [AZD5991] + CN(C)CCCOc1ccc(-c2ccc3ncc4c(c3c2)n(C2CCOCC2)c(=O)n4C)cn1 [AZD0156] (first compound max 1 µM, 7x7, partner max 1 µM) noted as 0.394

###

Kindly supply the reported Bliss excess values for the records listed here.
- System: NCI-H1793 (Lung Adenocarcinoma)
- assay: Bliss excess, mean over the matrix (fraction); higher = more synergy
Numbers only.

Some solved cases for reference:
molecule	measured.number
COc1cccc(OCCCN)c1-c1cc(Nc2cnc(C#N)cn2)n[nH]1 [Prexasertib] + C=CCn1c(=O)c2cnc(Nc3ccc(N4CCN(C)CC4)cc3)nc2n1-c1cccc(C(C)(C)O)n1 [AZD1775] (first compound max 1 µM, partner max 1 µM)	-0.0045
Cc1c2c(nn1C)CSCc1cc(n(C)n1)CSc1cc(c3ccccc3c1)OCCCc1c(C(=O)O)n(C)c3c-2c(Cl)ccc13 [AZD5991] + Cn1cnc2c(F)c(Nc3ccc(Br)cc3Cl)c(C(=O)NOCCO)cc21 [Selumetinib] (first compound max 1 µM, 7x7, partner max 3 µM)	0.0133
CN(CCO)CC[C@H](CSc1ccccc1)Nc1ccc(S(=O)(=O)NC(=O)c2ccc(N3CCC([C@@H](O)c4ccccc4-c4ccc(Cl)cc4)CC3)cc2)cc1S(=O)(=O)C(F)(F)F [AZD4320] + C1CN(CCC1(C(=O)N[C@@H](CCO)C2=CC=C(C=C2)Cl)N)C3=NC=NC4=C3C=CN4 [Capivasertib] (first compound max 1 µM, 7x7, partner max 3 µM)	-0.0106
C=CCn1c(=O)c2cnc(Nc3ccc(N4CCN(C)CC4)cc3)nc2n1-c1cccc(C(C)(C)O)n1 [AZD1775] + C[C@@H]1COCCN1C2=NC(=NC(=C2)C3(CC3)[S@](=N)(=O)C)C4=C5C=CNC5=NC=C4 [AZD6738] (first compound max 1 µM, partner max 10 µM)	-0.0289
CN(C)CCCOc1ccc(-c2ccc3ncc4c(c3c2)n(C2CCOCC2)c(=O)n4C)cn1 [AZD0156] + O=C(c1cc(Cc2n[nH]c(=O)c3ccccc23)ccc1F)N1CCN(C(=O)C2CC2)CC1 [Olaparib] (first compound max 3 µM, partner max 3 µM)	0.0074
Cc1cc2ncnn2cc1Nc1ncc2c(n1)n(C1CCOCC1)c(=O)n2C [AZD7648] + CCN(CCO)CCCOc1ccc2c(Nc3cc(CC(=O)Nc4cccc(F)c4)[nH]n3)ncnc2c1 [AZD2811] (first compound max 10 µM, 7x7, partner max 1 µM)	-0.005

Consider the record given below.
Lab book: Bliss excess of C[C@@H]1COCCN1c1cc(C2([S@](C)(=N)=O)CC2)nc(-c2ccnc3[nH]ccc23)n1 [AZD6738] + O=C(c1cc(Cc2n[nH]c(=O)c3ccccc23)ccc1F)N1CCN(C(=O)C2CC2)CC1 [Olaparib] (first compound max 10 µM, 7x7, partner max 10 µM) noted as -0.0153
